Attribute: log10 solubility kinetic
# condition-label: buffer; pH 7.4; 200.0 µM
Values below are the log10 of the recorded solubility kinetic, with µg/mL as the unit.

{"molecule": "COc1cccc(C=O)c1OCCCOc1cccc2cccnc12", "log10 solubility kinetic": 1.54}

Entry under review: `Cc1nonc1NC(=O)CSc1nc2ccc(Cl)cc2[nH]1` . Reported log10 solubility kinetic?
1.56

Now consider `Cc1noc(C)c1COC(=O)/C=C/c1ccc(Cl)cc1` and answer again.
0.81

Now consider `COc1ccc(NC2=NC(C)(C)CS2)cc1` and answer again.
1.50

* * *

# condition-label: buffer; pH 7.4; 200.0 µM
Attribute: solubility kinetic
Return type: number; implicit unit µg/mL.

Worked cases, solubility kinetic given:
{"molecule": "COc1ccc([N+](=O)[O-])cc1NC(=O)Nc1ccc(OC)c(OC)c1", "solubility kinetic, µg/mL": 0.3}
{"molecule": "Nc1ncnc2nc(SCC(=O)Nc3ccccc3F)[nH]c12", "solubility kinetic, µg/mL": 29.8}
{"molecule": "CSc1cccc(NC(=S)N(C(C)C)C(C)c2ccccn2)c1 (configuration not stated)", "solubility kinetic, µg/mL": 9.6}

Entry under review: `COCCNC(=S)N1CCN(Cc2cccc(OC)c2)CC1` . Reported solubility kinetic?
42.5

Now consider CC(OC(=O)/C=C/c1cccs1)C(=O)NC1CCCCC1C (configuration not stated) and answer again.
4.9

Now consider `O=C(OCC(=O)N1CCN(S(=O)(=O)c2ccccc2)CC1)C1CCC1` and answer again.
54
